target: hGIPR (Homo sapiens, UniProt P48546); experiment: Functional cAMP activity in the presence of 1% HSA; type: cell-based; details: read-out: cAMP Rel EC50, hGIPR
Sequence (P48546 22-466): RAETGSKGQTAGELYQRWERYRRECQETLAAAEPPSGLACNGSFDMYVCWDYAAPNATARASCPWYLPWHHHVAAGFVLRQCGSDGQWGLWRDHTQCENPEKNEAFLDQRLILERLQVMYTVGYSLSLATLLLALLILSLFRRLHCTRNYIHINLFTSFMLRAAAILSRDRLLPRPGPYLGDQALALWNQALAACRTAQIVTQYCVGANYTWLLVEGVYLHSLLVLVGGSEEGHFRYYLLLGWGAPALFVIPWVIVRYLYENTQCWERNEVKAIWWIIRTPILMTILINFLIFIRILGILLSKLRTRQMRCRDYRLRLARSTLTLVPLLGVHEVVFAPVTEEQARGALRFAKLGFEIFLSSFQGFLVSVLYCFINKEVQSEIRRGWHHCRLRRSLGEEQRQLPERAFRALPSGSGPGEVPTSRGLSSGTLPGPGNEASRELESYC
Starred links: 1 amine or outer side, 2 acyl side, 3 side chain; linkers in the order of their positions; H or OH if unused. Non-standard residues stand in square brackets, D forms with d. Groups on a side chain read outwards from the residue. No end group written: not given here. *: point of attachment. C20 diacid = O=C(O)CCCCCCCCCCCCCCCCCCC(=O)*; C18 diacid = O=C(O)CCCCCCCCCCCCCCCCC(=O)*; αMePhe(2-F) = C[C@](N)(Cc1ccccc1F)C(=O)O; γGlu = O=C(O)[C@H](CCC(=O)[*:2])N[*:1]; αMe4Pal = C[C@](N)(Cc1ccncc1)C(=O)O; αMeY = C[C@](N)(Cc1ccc(O)cc1)C(=O)O; 4Pal = N[C@@H](Cc1ccncc1)C(=O)O; αMeL = CC(C)C[C@](C)(N)C(=O)O; Orn = NCCC[C@H](N)C(=O)O; AEEA = NCCOCCOCC(=O)O; Aib = CC(C)(N)C(=O)O
Under this convention, Met denotes EC50 strictly below 20 nM and Not met denotes EC50 at or above 20 nM.

I wonder whether H-Y[Aib]QGTFTSD[4Pal]SQ[αMeL]LDKK([γGlu-γGlu-C18 diacid])AQ[αMe4Pal]AFIEYLIE[Aib]GPSSGAPPPSGE-NH2 [Example 882] has EC50 below 20 nM. Can you tell? Not met

I wonder whether H-Y[Aib]QGTFTSD[4Pal]SQ[αMeL]LD[Orn]K([γGlu-γGlu-C18 diacid])AQ[αMe4Pal]AFIEYLIAGGPSSGEPPPSGSE-NH2 [Example 1008] has EC50 below 20 nM. Can you tell? Met

I wonder whether H-Y[Aib]QGTFTSD[4Pal]SQ[αMeL]LD[Orn]K([γGlu-γGlu-C18 diacid])AQ[αMe4Pal]AFIEYLIE[dA]GPSSGAPPPSGS-NH2 [Example 1017] has EC50 below 20 nM. Can you tell? Not met

I wonder whether H-Y[Aib]QGTFTSDFSK[αMeL]LDKK([AEEA-γGlu-C20 diacid])AQ[Aib]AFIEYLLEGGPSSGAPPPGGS-NH2 [Example 18] has EC50 below 20 nM. Can you tell? Not met

I wonder whether Y[Aib]QGTFTSD[4Pal]SQ[αMeL]LD[Orn]K([γGlu-γGlu-C18 diacid])AQ[αMe4Pal]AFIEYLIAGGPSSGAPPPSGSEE-NH2 [Example 1031] has EC50 below 20 nM. Can you tell? Met

I wonder whether H-Y[Aib]QGT[αMePhe(2-F)]TSD[4Pal]SILLDKK([γGlu-γGlu-C18 diacid])AQ[Aib]AFIE[αMeY]LEEGGPSSGAPPPSGSGE-NH2 [Example 666] has EC50 below 20 nM. Can you tell? Met

###

Kindly supply the reported EC50 values for the records listed here.
molecular target: hGIPR (Homo sapiens, UniProt P48546); assay: Functional cAMP activation in the presence of 0.1% casein (no HSA); assay type: cell-based; settings: read-out: Relative cAMP EC50, hGIPR;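 also: intracellular cAMP rise after 30 min at 37 °C read by HTRF against a standard curve, scaled between buffer alone (0%) and top control ligand concentration (100%), four-parameter fit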
Starred links: 1 amine or outer side, 2 acyl side, 3 side chain; linkers in the order of their positions; H or OH if unused. Non-standard residues stand in square brackets, D forms with d. Groups on a side chain read outwards from the residue. *: point of attachment. C18 diacid = O=C(O)CCCCCCCCCCCCCCCCC(=O)*; αMePhe(2-F) = C[C@](N)(Cc1ccccc1F)C(=O)O; γGlu = O=C(O)[C@H](CCC(=O)[*:2])N[*:1]; αMe4Pal = C[C@](N)(Cc1ccncc1)C(=O)O; αMeY = C[C@](N)(Cc1ccc(O)cc1)C(=O)O; 4Pal = N[C@@H](Cc1ccncc1)C(=O)O; αMeL = CC(C)C[C@](C)(N)C(=O)O; αMeS = C[C@](N)(CO)C(=O)O; Orn = NCCC[C@H](N)C(=O)O; AEEA = NCCOCCOCC(=O)O; Aib = CC(C)(N)C(=O)O
Field: value (include unit after the number)

Consider the substance H-Y[Aib]QGT[αMePhe(2-F)]TSD[4Pal][αMeS]I[αMeL]LD[Orn]K([AEEA-γGlu-γGlu-C18 diacid])AQ[Aib][Orn]FIEYLIEAGPSSGEPPPEEG-NH2 [Example 485] . State its measured EC50. 19.4 pM

Consider the substance H-Y[Aib]QGT[αMePhe(2-F)]TSD[4Pal][αMeS]I[αMeL]LD[Orn]K([AEEA-γGlu-C18 diacid])AQ[αMe4Pal]EFI[dE][αMeY]LVEGGPSSGAPPPSGSE-NH2 [Example 751] . State its measured EC50. 7.59 pM

Consider the substance H-Y[Aib]QGT[αMePhe(2-F)]TSD[4Pal]SILLDKK([γGlu-γGlu-C18 diacid])AQ[Aib]AFIEYLEEGGPSSGAPPPEGTE-NH2 [Example 659] . State its measured EC50. 67.3 pM

Consider the substance H-Y[Aib]QGT[αMePhe(2-F)]TSD[4Pal]SI[αMeL]LD[Orn]K([γGlu-γGlu-C18 diacid])AQ[αMe4Pal][Orn]FI[dE][αMeY]LIEGGPSSGEPPPEEG-NH2 [Example 681] . State its measured EC50. 6.63 pM

Consider the substance H-Y[Aib]QGT[αMePhe(2-F)]TSD[4Pal][αMeS]I[αMeL]LD[Orn]K([AEEA-γGlu-C18 diacid])AQ[αMe4Pal]EFI[dE][αMeY]LIEGGPSSGEPPPSGS-NH2 [Example 710] . State its measured EC50. 5.78 pM
